Assay: Biodistribution of 99mTc(N)(X)(DTC)+ heterocomplexes in rats
Type: in vivo, male Spraque-Dawley rats (SD rats)
Conditions: 1 hr after injection
Procedure: The biodistribution of a ^99mTc nitride heterocomplex represented by the general formula ^99mTc(N)(X)(Y) was investigated as follows: ^99mTc nitride heterocomplexes were synthesized using DTC as a bidentate ligand Y and each of the diphosphine compounds X described below, and the biodistribution in rats of each heterocomplex was investigated. […] The biodistribution was measured using male Spraque-Dawley rats (SD rats) weighing 200 to 250 g. […]
quantity: Lung % dose/g (% dose/g)

> print(dat)
                                   compound       quantity  unit.symbol  meas.value
1  CSC1=[S+][99Tc-2]2(#[N])([NH]N1C)[P+](c1ccccc1)(c1ccccc1)CCOCC[P+]2(c1ccccc1)c1ccccc1 [^99mTc(N)(POP)(DTC)^+]  Lung % dose/g     % dose/g       0.771

A. COCCC[P]1(CCCOC)CCN(CCOC)CC[P](CCCOC)(CCCOC)[99Tc+]12(#[N])[NH]N(C)C(SC)=[S]2 [^99mTc(N)(PNP3)(DTC)^+]
B. CCCN1CC[P+](c2ccccc2)(c2ccccc2)[99Tc-2]2(#[N])([NH]N(C)C(SC)=[S+]2)[P+](c2ccccc2)(c2ccccc2)CC1 [^99mTc(N)(PNP1)(DTC)^+]
C. COCCN1CC[P+](c2ccccc2)(c2ccccc2)[99Tc-2]2(#[N])([NH]N(C)C(SC)=[S+]2)[P+](c2ccccc2)(c2ccccc2)CC1 [^99mTc(N)(PNP2)(DTC)^+]
Qu. Put the compounds in ascending order of Lung % dose/g. Please express your ranking as an ordered list of the labels.
Ans. A, C, B
(A: 0.329 % dose/g, C: 1.011 % dose/g, B: 1.586 % dose/g)
